Just for reference, paper PMC7826789 is where these values come from.

tested on: EPHA6; settings: Compound Concentration (nM):1000;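 also: KINOMEscan scanMAX binding as percent activity remaining versus control; lower means stronger binding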
Assay Readout: Percent Control
Units required after the number.

Which measured Percent Control value corresponds to CN(C)c1cc2c(Nc3ccc4c(cnn4Cc4ccccc4)c3)ncnc2cn1 [GW282974X] ? 87%

Which measured Percent Control value corresponds to NS(=O)(=O)c1ccc(N/N=C2\C(=O)Nc3ccc(Cl)cc32)cc1 [GW280670X] ? 100%

Which measured Percent Control value corresponds to COc1cc(/C=N/Nc2ncnc3[nH]ncc23)ccc1O [GW578748X] ? 100%

Which measured Percent Control value corresponds to CN1CCN(C(=O)c2ccc(NC(=O)Nc3ccc(N(C)c4ccnc(Nc5ccc(CS(C)(=O)=O)cc5)n4)cc3)cc2)CC1.Cl [GW830263A] ? 76%

Which measured Percent Control value corresponds to COc1cc(C=NNc2ncnc3c2cnn3-c2ccccc2)ccc1O [GW513184X] ? 100%

Which measured Percent Control value corresponds to CC1=C(C(=O)Nc2ccc3[nH]ncc3c2)C(c2ccc3ccccc3c2)CC(=O)N1 (centres unmarked) [GSK270822A] ? 90%

Which measured Percent Control value corresponds to Cc1cc(O)cc(C)c1/C=C/c1cncc(C(N)=O)c1 [GW435821X] ? 100%

Which measured Percent Control value corresponds to CN(C)CCNC(=O)Nc1ccc(N(C)c2ccnc(Nc3ccc(CS(C)(=O)=O)cc3)n2)cc1.Cl [GW830900A] ? 100%

Which measured Percent Control value corresponds to COc1cc2ncn(-c3cc(O[C@H](C)c4ccccc4Cl)c(C(N)=O)s3)c2cc1OC [GSK237701A] ? 83%

Which measured Percent Control value corresponds to Cl.O=C(Nc1ccc(Oc2ccc3[nH]c(NC(=O)c4ccccc4)nc3c2)cc1)Nc1cc(C(F)(F)F)ccc1F [GW709042A] ? 34%

Which measured Percent Control value corresponds to NS(=O)(=O)c1ccc(N/N=C2\C(=O)Nc3ccc(C(=O)NCCc4c[nH]cn4)cc32)cc1 [GW300660X] ? 100%

Which measured Percent Control value corresponds to NS(=O)(=O)c1ccc(Nc2ncc(-c3ccccc3)o2)cc1 [GW572399X] ? 100%

Which measured Percent Control value corresponds to CC1=C(C(=O)Nc2ccc3[nH]ncc3c2)C(c2ccc(Cl)c(Cl)c2)CC(=O)N1 (centres unmarked) [GSK299115A] ? 100%

Which measured Percent Control value corresponds to NS(=O)(=O)c1ccc(N/N=C2\C(=O)Nc3ccc(C(=O)NCc4ccncc4)cc32)cc1 [GW300657X] ? 100%

Which measured Percent Control value corresponds to CC(C)COC(=O)c1ccc2c(c1)/C(=C/Nc1ccc(S(N)(=O)=O)cc1)C(=O)N2 [GW416981X] ? 100%

Which measured Percent Control value corresponds to NS(=O)(=O)c1ccc(N/N=C2\C(=O)Nc3ccc(-c4cnco4)cc32)cc1 ? 87%

Which measured Percent Control value corresponds to O=C1Nc2ccc(C(=O)c3ccco3)cc2C1=Cc1cc(Cl)c(O)c(Cl)c1 [GW406108X] ? 100%

Which measured Percent Control value corresponds to Cl.O=C(Nc1ccc(Oc2ccc3[nH]c(NC(=O)c4ccco4)nc3c2)cc1)Nc1cc(C(F)(F)F)ccc1F [GW683134A] ? 35%

Which measured Percent Control value corresponds to CCS(=O)(=O)c1ccc(OC)c(Nc2ncc(-c3cccc(OC)c3)o2)c1 [GW580509X] ? 100%

Which measured Percent Control value corresponds to COc1ccc2c(-c3ccnc(Nc4cccc(OC(F)(F)F)c4)n3)cnn2n1 [GW810372X] ? 100%
